# Test Details: in vivo
# Conditions: dog, topical or ocular, 14.5 mg/kg, AUC/inf, Median

Molecule | AUC [ng·h/mL]
O=C(C1CCCCC1)N1CC(=O)N2CCc3ccccc3C2C1 (stereo not shown) | 997

###

# Test Details: in vivo
# Conditions: dog, Plasma concentrations of Praziquantel
Outcome Measure: concentration at 0 h (ng/mL)

Molecule | Outcome Measure | Assay Value
O=C(C1CCCCC1)N1CC(=O)N2CCc3ccccc3C2C1 (stereo not shown) [Praziquantel] | concentration at 0 h | 0

###

# Test Details: in vivo
# Conditions: dog, Plasma concentrations of Praziquantel

Compound | concentration at 6 h / ng/mL
O=C(C1CCCCC1)N1CC(=O)N2CCc3ccccc3C2C1 (stereo not shown) [Praziquantel] | 63.7
